Test system: Italian ryegrass (Lolium multiflorum)
Test: Test B preemergence, Italian ryegrass
Type: in vivo
Conditions: Preemergence, 125 g ai/ha; scale 0 to 100
Description: […]
EXPERIMENTAL READOUT: Plant response rating, Ryegrass, Italian
Numbers only.

Give me Plant response rating, Ryegrass, Italian for each of these compounds, listed below.
1. CC1(C)CC(S(=O)(=O)Cc2c(C(F)(F)F)nc3ccsn3c2=O)=NO1
2. CC1(C)CC(S(=O)(=O)Cc2c(C(F)(F)C(F)(F)F)nc3n(c2=O)CCCC3)=NO1
3. CC1(C)CC(S(=O)(=O)Cc2c(C(F)(F)C(F)(F)F)nc3n(c2=O)CCC3)=NO1

1: 60; 2: 40; 3: 100
